- Assay Target: pooled human IgG (human IgG1, 2, 3 and 4)
Quantity Kind: Enzyme Activity Endpoint Assay: IgG (ng/µL)
The figure you give is taken to be in ng/µL; do not add the unit.

Inquiry: Need Enzyme Activity Endpoint Assay: IgG of PRT-262 (protein) MVTSVWTKGVTPPTNFTYGEDVLHAPYVANQGWYDITKTFNGKDNLLCGAATAGNMLHWWFDQNKEQIENYLKKHPEKQKINFNGEQLFDVKEAIDTKDSQLDSKLFEYFLEKAFPNLSTKHLGVFPDHVIDMFINGYRLSLLNHGPTPVKRGSKDKRGGIFDAVFTRGVQSKLLTNRHDFKEKTLKEISDLIKQELTEGKALGISHTYANVRINHVINLWGADFDAEGNLEAIAVTDSDTNASIGMKKYFVGVNSSGKVAISAKEIEEDNIGAQVLGLFTLSTGQDIWNQTN , thanks.
Reply text: 289

Inquiry: Enzyme Activity Endpoint Assay: IgG lookup needed for PRT-544 (protein) MANQEIRYSKNENPNVTIKWVHGIGEPTQAEKEKIEFWWYETTTTKFFNNRKVDHLGDGNQCWAKTDSNMLHWWFVQNEENINQYIAKKNITGKINFNGEQMFDVKEGIDDNQEKEKSYIANTFRTKKAHNLSTKHKGDYIINGLSWYLYGLNNFKIAHGPTPVKKKPKFYGPALFKDVFNRGDGNTPIIVETDFKEYTKKEFEDTLSAALDSKKAIGINIYGSNVDYQHAITLWGAAFDEEENIIAIYVVDNNFKFENRIFPYGIWYQKEGRPYLFNYEINSFVKNRYVGEVITLDKGEAQWQETNLEHHHHHH , thanks.
Reply text: 314

Inquiry: Returns the measured Enzyme Activity Endpoint Assay: IgG for the input protein. Input: PRT-256 (protein) MVTSVWTKGVTPPTNFTYGEDVLHAPYVANQGWYDITKLFNGKDDLLCGAATAGNMLHWWFDQNKEQIENYLKKHPEKQKINFNGEQMFDVKEAIDTKDSQLDSKLFEYFLEKAFPNLSTKHLGVFPDHVIDMFINGYRLSLLNHGPTPVKRGSKDPRGGIFDAVFTRGDQSKLLTNRHDFKEKTLKEISDLIKQELTEGKALGISHTYANVGINHVINLWGADFDAEGNLEAIAVTDSDSNASIGMKKYFVGVNSSGKVAISAKEIEEDNIGAQVLGLFTLSTGQDIWNQTN
Reply text: 55

Inquiry: Quick check: Enzyme Activity Endpoint Assay: IgG of PRT-541 (protein) MANQEIRYSKNENPNVTIKWVHGIGEPTQAEKEKIEFWWYETTTTKFFNNRKVDHLGDGNQCWAKTDSNMLHWWFVQNEENINQYIAKKNITGKINFNGEQMFDVKEGIDDNQEKEKSYIANTFRTKKAHNLSTKHKGDYIINGLSWYLYGLNNFKIAHGPTPVKKKPKFYGPALFKDVFSRGDGNTPIIVETDFKEYTKKEFEDTLSAALDSKKAIGINIYGSNVDYQHAITLWGAAFDEEENIIAIYVVDNNFKFENRIFPYGIWYQKEGRPYLFNYEINSFVKNRYVGEVTTLDKGEAQWQETNLEHHHHHH ?
Reply text: 854
